# Target: T1, B-cat-Halo (UniProt P35222 1-781, HaloTag NanoBRET 618 Ligand bound to the HaloTag in the assay)
# T1 sequence (looked up): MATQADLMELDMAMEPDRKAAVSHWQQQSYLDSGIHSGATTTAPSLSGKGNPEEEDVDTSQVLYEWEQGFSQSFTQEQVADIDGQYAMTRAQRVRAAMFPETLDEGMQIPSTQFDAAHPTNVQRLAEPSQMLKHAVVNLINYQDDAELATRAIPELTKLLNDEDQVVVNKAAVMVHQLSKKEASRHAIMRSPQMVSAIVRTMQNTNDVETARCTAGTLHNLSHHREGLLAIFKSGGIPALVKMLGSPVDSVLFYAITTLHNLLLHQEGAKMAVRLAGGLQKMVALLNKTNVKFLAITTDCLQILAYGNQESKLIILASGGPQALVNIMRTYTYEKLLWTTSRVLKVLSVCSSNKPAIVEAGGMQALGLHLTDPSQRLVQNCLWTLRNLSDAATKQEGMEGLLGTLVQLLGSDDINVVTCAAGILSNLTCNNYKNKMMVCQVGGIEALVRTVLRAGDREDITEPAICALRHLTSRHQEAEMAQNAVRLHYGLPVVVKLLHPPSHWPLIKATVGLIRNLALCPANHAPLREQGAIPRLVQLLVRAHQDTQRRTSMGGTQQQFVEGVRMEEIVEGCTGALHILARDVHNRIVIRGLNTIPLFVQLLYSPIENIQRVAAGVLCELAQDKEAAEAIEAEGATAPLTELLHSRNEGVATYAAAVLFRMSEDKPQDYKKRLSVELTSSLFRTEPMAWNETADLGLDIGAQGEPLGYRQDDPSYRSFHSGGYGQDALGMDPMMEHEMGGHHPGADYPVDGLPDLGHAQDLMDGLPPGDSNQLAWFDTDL
# Method summary: cell-based or functional assay
Starred links: 1 amine or outer side, 2 acyl side, 3 side chain; linkers in the order of their positions; H or OH if unused. Positions of bridges follow the written chain, without caps; N, C: chain ends. Non-standard residues stand in square brackets, D forms with d. Primed or numbered codes have the meaning given here. PyrS2″ = (S)-3-amino-1-((pent-4-en-1-yloxy)carbonyl)pyrrolidine-3-carboxylic acid (stapling residue), C=CCCCOC(=O)N1CC[C@@](N[*:1])(C(=O)[*:2])C1; B5(3) = 2,2-bis(4-pentenyl)glycine (stitching residue), C=CCCCC(CCCC=C)(N[*:1])C(=O)[*:2]; 2F3MeF = Cc1cccc(C[C@H](N[*:1])C(=O)[*:2])c1F; Bta = N[C@@H](Cc1csc2ccccc12)C(=O)O; αAllylPro = C=CC[C@@]1(C(=O)O)CCCN1; tBuAla = CC(C)(C)C[C@H](N)C(=O)O; 3Thi = N[C@@H](Cc1ccsc1)C(=O)O; PyrS2(4) = not defined here; TfeGA″ = not defined here
Measurement label: NanoBRET Abs IC50 (µM)

[[record]]
binder = "Ac-[αAllylPro]D[tBuAla][B5(3)]DDAAFN[PyrS2″][3Thi][Bta]QK(mPEG2)-NH2 (staple 1-4, 4-11; not fully specified; printed as Ac-PL3-Asp-Npg-B5-Asp-Asp-Ala-Ala-Phe-Asn-PyrS2-3Thi-BztA-Gln-[mPEG2]Lys-NH2) [I-911]"
readout_units = "µM"
endpoint_result = 22.9

[[record]]
binder = "Ac-[αAllylPro]D[tBuAla][B5(3)]D[TfeGA″]AAFN[PyrS2(4)][2F3MeF][Bta]Q-NH2 (staple 1-4, 4-11; reading uncertain; also: staple stereoisomer, earlier-eluting HPLC peak) [I-927]"
readout_units = "µM"
endpoint_result = 8.2

[[record]]
binder = "Ac-[αAllylPro]D[tBuAla][B5(3)]DDAAFN[PyrS2(4)][3Thi][Bta]QK(2Napc)-NH2 (staple 1-4, 4-11; reading uncertain; also: printed as Ac-PL3-Asp-Npg-B5-Asp-Asp-Ala-Ala-Phe-Asn-PyrS2-3Thi-BztA-Gln-[2Napc]Lys-NH2) [I-915]"
readout_units = "µM"
endpoint_result = 15.5

